Test system: A498 renal
assay_comment: NCI tumour cell line growth inhibition, 48 h
Use 60 µM as the dividing line for TGI, with the line itself on the MET side and lower values as NOT MET.

Hello, I need to know if Clc1nssc1=Nc1nonc1-c1ccccc1 has measured TGI not below 60 µM. Thanks!
MET

Hello, I need to know if COc1ccc2c3c([nH]c2c1[N+](=O)[O-])C(C)N(Cc1ccc([N+](=O)[O-])cc1)CC3 (stereo not given) has measured TGI not below 60 µM. Thanks!
MET

Hello, I need to know if CCn1c(SCC(=O)N/N=C/c2ccccc2)nc2ccccc2c1=O has measured TGI not below 60 µM. Thanks!
MET

Hello, I need to know if COc1ccccc1C(O)(c1ccccc1)C(O)(c1ccccc1)c1ccccc1OC (stereo not given) has measured TGI not below 60 µM. Thanks!
MET

Hello, I need to know if N#Cc1ccc2c(c1)C(=O)c1c-2n(CCCCl)c(=O)c2cc([N+](=O)[O-])ccc12 has measured TGI not below 60 µM. Thanks!
NOT MET

Hello, I need to know if CC(O)c1cc2c(s1)C(=O)c1ccsc1C2=O (stereo not given) has measured TGI not below 60 µM. Thanks!
NOT MET

Hello, I need to know if O=C(N/N=C/c1c(-c2ccccc2)no[n+]1[O-])N1CCOCC1 has measured TGI not below 60 µM. Thanks!
MET

Hello, I need to know if COc1cc2c(cc1OC)-c1ccc3cc4c(cc3c1N(CCCn1ccnc1)C2)OCO4 has measured TGI not below 60 µM. Thanks!
NOT MET

Hello, I need to know if Nn1c(CCCCCCCCc2nnc(COc3ccc4ccccc4c3O)n2N)nnc1COc1ccc2ccccc2c1O has measured TGI not below 60 µM. Thanks!
MET

Hello, I need to know if Cc1ccc(NC2=C(Cl)C(=O)N(Cc3ccc(Cl)cc3)C2=O)cc1O has measured TGI not below 60 µM. Thanks!
NOT MET

Hello, I need to know if COc1ccc(/C(=N\NC(=O)C(=O)NN)C(c2ccc(OC)cc2)C2(O)C(=O)Nc3ccccc32)cc1 (stereo not given) has measured TGI not below 60 µM. Thanks!
MET

Hello, I need to know if Cc1cc(C)c(S(=O)(=O)N2CCCN(S(=O)(=O)c3c(C)cc(C)cc3C)OCCCO2)c(C)c1 has measured TGI not below 60 µM. Thanks!
MET

Hello, I need to know if O=[N+]([O-])c1ccc(N=Nc2c(O)ccc3ccccc23)c([N+](=O)[O-])c1 has measured TGI not below 60 µM. Thanks!
MET

Hello, I need to know if CCOc1ccc(N=Cc2ccc3cc(C)ccc3n2)cc1 has measured TGI not below 60 µM. Thanks!
MET
